The measurements presented in this section are drawn from PubChem BioAssay (NCI).

Tested on: EKVX NSCLC
Experiment: NCI-60 one-dose screen, 48 h (100 = growth as untreated, 0 = no growth, -100 = all killed)
Test Settings: 10 µM unless noted
The panel holds about 83,000 compounds, 20% with a hit somewhere; the sample as a whole holds those more often.
Let's look at some molecules and their measured growth.
Observable: growth (%)

| Molecule | Experimental Target | Observable | Observed |
| --- | --- | --- | --- |
| CCc1ccccc1NC(=O)/C(C#N)=C/c1ccc(OC)cc1 | EKVX NSCLC | growth | 92.7 |
| Cc1nc2ccccc2n1CC1NC(=O)NC1=O (stereo unspecified) | EKVX NSCLC | growth | 97.9 |
| Cc1c(C(=O)N[C@@H](Cc2ccccc2)C(=O)C(=O)NCCc2ccccc2)[nH]c2ccccc2c1=O | EKVX NSCLC | growth | 97.1 |
| O=C(NC(Cc1nnc2n(Cc3ccccc3)c(=O)c3c4c(sc3n12)CCCC4)c1ccc(Cl)cc1)c1ccccc1 (stereo unspecified) | EKVX NSCLC | growth | 94.6 |
| O=C(Nc1ccc(Cl)cc1)Nc1ccc(Cl)c(C(F)(F)F)c1 | EKVX NSCLC | growth | -3.9 |
| CCCCCCCCCCCCCCCCCC1=NCCN1CCOC1=C(Cl)C(=O)c2ccccc2C1=O | EKVX NSCLC | growth | 86.7 |
